Ref: ChEMBL document CHEMBL1122491

test system: Human alphaherpesvirus 1; assay: Concentration required to inhibit replication of HSV-1 cell by 50%; format: functional; details: Human alphaherpesvirus 1, HSV-1; read-out: ED50 (the source's name)
endpoint_name: EC50 (µM)
Numeric answer only, unit µM assumed.

EC50 for CC(=O)OC[C@H]1OC(n2cc(C(F)(F)F)c(=O)[nH]c2=O)[C@H](OC(C)=O)[C@H]1OC(C)=O (some centres undefined) is 7

Next:
EC50 for O=c1[nH]c(=O)n(C2O[C@H](CO)[C@@H](O)[C@@H]2O)cc1C(F)(F)F (some centres undefined) is 5

EC50 for CC(=O)OC[C@H]1OC(n2cc(C(F)(F)C(F)(F)F)c(=O)[nH]c2=O)C[C@H]1OC(C)=O (some centres undefined) is 12.5

* * *

EC50 values by entry
test: Concentration required to inhibit replication of S-180 cell by 50%; assay type: functional; details: Mus musculus, read-out: ED50 (the source's name)
Numeric answer only, unit µM assumed.

EC50 for O=c1[nH]c(=O)n(C2O[C@H](CO)[C@@H](O)[C@@H]2O)cc1C(F)(F)F (some centres not stated) is 65

Kindly consider the entry below.
EC50 for CC(=O)OC[C@H]1OC(n2cc(C(F)(F)F)c(=O)[nH]c2=O)[C@H](OC(C)=O)[C@H]1OC(C)=O (some centres not stated) is 25

* * *

assay: Therapeutic index was determined as the ratio fo ED50(vero)/ ED50(HSV-1); conditions: monkey, Vero cells
endpoint_name: selectivity ratio

selectivity ratio for CC(=O)OC[C@H]1OC(n2cc(C(F)(F)F)c(=O)[nH]c2=O)[C@H](OC(C)=O)[C@H]1OC(C)=O (some centres not stated) is 6.4

Next:
selectivity ratio for O=c1[nH]c(=O)n(C2O[C@H](CO)[C@@H](O)[C@@H]2O)cc1C(F)(F)F (some centres not stated) is 64
